Test system: C. albicans NCPF 3281
protocol: microbe, parasite or virus in culture
Assay type: cell-based
protocol-conditions: Candida albicans, NCPF3281, read-out: Modal MIC (antibiogram)

[
  {
    "molecule": "Cc1ccc(Oc2ccccc2-c2csc(N=C3NCCCN3)n2)c(C)c1 [Abafungin, reference compound]",
    "experimental-target": "C. albicans NCPF 3281",
    "MIC": "> 128 µg/mL"
  },
  {
    "molecule": "OC(Cn1cncn1)(Cn1cncn1)c1ccc(F)cc1F [Fluconazole, reference compound]",
    "experimental-target": "C. albicans NCPF 3281",
    "MIC": "0.06 to 0.125 µg/mL"
  },
  {
    "molecule": "C[C@@H](c1ncncc1F)[C@](O)(Cn1cncn1)c1ccc(F)cc1F [Voriconazole, reference compound]",
    "experimental-target": "C. albicans NCPF 3281",
    "MIC": "≤ 0.007 µg/mL"
  }
]

---

System: S. aureus (MRSA) 1199B
protocol: microbe, parasite or virus in culture
Assay type: cell-based, Staphylococcus aureus
protocol-conditions: S. aureus (MRSA) 1199B (R); shown in µM
Where a SMILES comes first, the peptide text is derived from it.
test-readout: Modal MIC

[
  {
    "compound": "CC[C@H](C)[C@H](N)C(=O)N[C@@H](CC(C)C)C(=O)NCC(=O)N[C@@H](CCCCN)C(=O)N[C@H](C(=O)N[C@@H](Cc1c[nH]c2ccccc12)C(=O)N[C@@H](CCCCN)C(=O)N1CCC[C@H]1C(=O)N[C@H](C(=O)N[C@@H](CCCCN)C(=O)N[C@@H](CCCCN)C(=O)N[C@@H](CC(C)C)C(=O)N[C@@H](Cc1ccccc1)C(N)=O)[C@@H](C)CC)[C@@H](C)CC [K7P8K11-IsCTa] (H-ILGKIWKPIKKLF-NH2)",
    "result": "19.8 µM"
  },
  {
    "compound": "CC[C@H](C)[C@H](NC(=O)[C@H](Cc1c[nH]c2ccccc12)NC(=O)[C@H](CC(=O)O)NC(=O)[C@H](Cc1c[nH]c2ccccc12)NC(=O)[C@@H](NC(=O)[C@H](CCCCN)NC(=O)CN)C(C)C)C(=O)N[C@@H](CCCCN)C(=O)N[C@@H](CO)C(=O)N[C@H](C(=O)N[C@@H](C)C(=O)N[C@@H](CCCCN)C(=O)N[C@@H](CCCCN)C(=O)N[C@@H](CC(C)C)C(=O)N[C@@H](Cc1c[nH]c2ccccc12)C(=O)N[C@@H](CC(N)=O)C(N)=O)[C@@H](C)O [Opis16a] (H-GKVWDWIKSTAKKLWN-NH2)",
    "result": "2 µM"
  }
]

---

Tested on: C. auris TDG 1912
protocol: microbe, parasite or virus in culture
Type: cell-based, Candida auris
protocol-conditions: C. auris TDG 1912; shown in µM
Where a SMILES comes first, the peptide text is derived from it.
Each entry below carries its recorded Modal MIC50.

[
  {
    "compound": "CC(C)C[C@H](NC(=O)[C@H](CCCCN)NC(=O)[C@H](CO)NC(=O)[C@H](CCCCN)NC(=O)[C@H](Cc1c[nH]c2ccccc12)NC(=O)[C@H](C)NC(=O)[C@H](CCCCN)NC(=O)[C@@H](N)CCCCN)C(=O)N[C@@H](C)C(=O)N[C@@H](CCCCN)C(=O)N[C@@H](CCCCN)C(=O)N[C@@H](CC(C)C)C(=O)N[C@@H](CCCNC(=N)N)C(=O)N[C@@H](C)C(=O)N[C@@H](CCCCN)C(=O)NCC(=O)N[C@@H](CCCCN)C(N)=O [PS-PB-14a] (H-KKAWKSKLAKKLRAKGK-NH2)",
    "experimental-target": "C. auris TDG 1912",
    "Modal MIC50": "> 63.8 µM"
  },
  {
    "compound": "CC[C@H](C)[C@H](NC(=O)[C@H](CCCCN)NC(=O)[C@H](CC(C)C)NC(=O)[C@H](C)NC(=O)[C@H](C)NC(=O)[C@H](CCCCN)NC(=O)[C@H](CC(C)C)NC(=O)[C@H](C)NC(=O)[C@@H](N)CCCCN)C(=O)NCC(N)=O [CPF-P3-10a] (H-KALKAALKIG-NH2)",
    "experimental-target": "C. auris TDG 1912",
    "Modal MIC50": "> 122 µM"
  },
  {
    "compound": "CC[C@H](C)[C@H](NC(=O)[C@H](C)NC(=O)[C@H](CCCCN)NC(=O)[C@@H]1CCCN1C(=O)[C@@H](NC(=O)[C@H](CC(C)C)NC(=O)[C@H](CO)NC(=O)[C@H](Cc1ccccc1)NC(=O)[C@H](CC(C)C)NC(=O)[C@@H](N)Cc1ccccc1)[C@@H](C)CC)C(=O)NCC(=O)NCC(=O)N[C@@H](CC(C)C)C(=O)N[C@H](C(=O)N[C@@H](CO)C(=O)N[C@@H](C)C(=O)N[C@@H](Cc1ccccc1)C(=O)N[C@@H](CCCCN)C(N)=O)[C@@H](C)CC",
    "experimental-target": "C. auris TDG 1912",
    "Modal MIC50": "> 64.8 µM"
  },
  {
    "compound": "CC[C@H](C)[C@H](N)C(=O)N[C@@H](CC(C)C)C(=O)NCC(=O)N[C@@H](CCCCN)C(=O)N[C@H](C(=O)N[C@@H](Cc1c[nH]c2ccccc12)C(=O)N[C@@H](CCCCN)C(=O)N1CCC[C@H]1C(=O)N[C@H](C(=O)N[C@@H](CCCCN)C(=O)N[C@@H](CCCCN)C(=O)N[C@@H](CC(C)C)C(=O)N[C@@H](Cc1ccccc1)C(N)=O)[C@@H](C)CC)[C@@H](C)CC [K7P8K11-IsCTa] (H-ILGKIWKPIKKLF-NH2)",
    "experimental-target": "C. auris TDG 1912",
    "Modal MIC50": "> 79 µM"
  },
  {
    "compound": "CC(C)C[C@H](NC(=O)[C@H](CCCCN)NC(=O)[C@H](CCCCN)NC(=O)[C@H](C)NC(=O)[C@H](CC(C)C)NC(=O)[C@H](CCCCN)NC(=O)[C@H](CO)NC(=O)[C@H](CCCCN)NC(=O)[C@H](Cc1c[nH]c2ccccc12)NC(=O)[C@H](C)NC(=O)[C@H](CCCCN)NC(=O)[C@H](CCCCN)NC(=O)[C@H](CC(C)C)NC(=O)[C@H](Cc1ccccc1)NC(=O)[C@H](CO)NC(=O)CN)C(N)=O [PS-PB-16a] (H-GSFLKKAWKSKLAKKL-NH2)",
    "experimental-target": "C. auris TDG 1912",
    "Modal MIC50": "> 67.8 µM"
  }
]
